Target: human mGlu2 receptor (Homo sapiens)
Construct: expressed in transfected cells; host or cells: CHO cells
Sequence (Q14416 19-872): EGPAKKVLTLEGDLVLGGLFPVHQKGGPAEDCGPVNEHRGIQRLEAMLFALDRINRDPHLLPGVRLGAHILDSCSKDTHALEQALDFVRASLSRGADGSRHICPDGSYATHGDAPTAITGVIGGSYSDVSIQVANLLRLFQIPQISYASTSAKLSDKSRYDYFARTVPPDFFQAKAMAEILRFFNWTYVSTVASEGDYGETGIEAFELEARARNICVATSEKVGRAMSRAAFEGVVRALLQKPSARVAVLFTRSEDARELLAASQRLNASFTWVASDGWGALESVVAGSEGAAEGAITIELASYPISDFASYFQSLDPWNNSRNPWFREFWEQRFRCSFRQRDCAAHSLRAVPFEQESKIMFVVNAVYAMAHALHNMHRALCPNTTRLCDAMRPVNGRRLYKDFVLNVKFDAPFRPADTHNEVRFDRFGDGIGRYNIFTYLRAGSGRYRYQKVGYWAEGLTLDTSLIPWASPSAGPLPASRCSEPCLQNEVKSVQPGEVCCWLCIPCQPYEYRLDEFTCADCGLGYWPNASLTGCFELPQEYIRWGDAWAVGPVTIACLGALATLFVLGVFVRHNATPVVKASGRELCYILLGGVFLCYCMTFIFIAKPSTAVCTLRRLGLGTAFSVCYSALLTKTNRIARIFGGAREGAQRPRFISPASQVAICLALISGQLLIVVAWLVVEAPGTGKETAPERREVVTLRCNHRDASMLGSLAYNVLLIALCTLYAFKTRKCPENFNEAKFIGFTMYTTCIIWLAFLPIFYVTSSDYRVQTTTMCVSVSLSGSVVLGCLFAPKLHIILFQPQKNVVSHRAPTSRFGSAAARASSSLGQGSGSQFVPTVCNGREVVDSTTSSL
Procedure Details: [35S]GTPγS binding assay, mGluR2 PAM
Assay type: biochemical
Run Conditions: in presence of EC20 glutamate
Property Label: GTPγS-hmGluR2 PAM pEC50
Lab note: jot down the number only; don't add units.

Problem: Please state recorded GTPγS-hmGluR2 PAM pEC50 (tested on human mGlu2 receptor (Homo sapiens)) of CC(C)CCn1ccc(N2CCC(F)(c3ccccc3)CC2)c(Cl)c1=O [Co. No. 23-a]
Solution: 6.58

Problem: Please state recorded GTPγS-hmGluR2 PAM pEC50 (tested on human mGlu2 receptor (Homo sapiens)) of O=c1c(Cl)c(N2CCC(c3ccccc3)CC2)ccn1CCC1CC1 [Co. No. 10-a]
Solution: 6.88

Problem: Please state recorded GTPγS-hmGluR2 PAM pEC50 (tested on human mGlu2 receptor (Homo sapiens)) of O=c1c(Cl)c(N2CCC(c3ccc(F)cc3F)CC2)ccn1CC1CC1 [Co. No. 14-a]
Solution: 6.92

Problem: Please state recorded GTPγS-hmGluR2 PAM pEC50 (tested on human mGlu2 receptor (Homo sapiens)) of CCCCCn1ccc(N2CCC(c3ccccc3)CC2)c(Cl)c1=O [Co. No. 11-a]
Solution: 7.11

Problem: Please state recorded GTPγS-hmGluR2 PAM pEC50 (tested on human mGlu2 receptor (Homo sapiens)) of O=c1c(C(F)(F)F)c(N2CCC(c3ccccc3)CC2)ccn1CC1CC1 [Co. No. 4-a]
Solution: 6.6
